TARGET_UNDER_TEST: Cellular tumor antigen p53 (Homo sapiens)
TEST: Primary qHTS for small molecule compounds that upregulate eGFP-tagged delta133p53alpha (in N-terminal) cells. (AID 2060322);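 also: cells pre-induced with doxycycline then dosed without doxycycline; series mostly up to about 56 µM; 0% = DMSO vehicle and 100% = reference activator; nearly all actives have a fitted effect of over 75% in size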
TEST_PARAMETERS: NCI-H358 eGFP-delta133p53alpha fluorescence, 24 h; active compounds read high
Inconclusive results are not listed.

>  <COMPOUND>
CC(C)[C@](O)(c1ccc2cc(OC(F)F)c(OC(F)F)cc2c1)c1cn[nH]n1

>  <activation / %>
12.3

$$$$
>  <COMPOUND>
C=CC(=O)N1CC(N2CCN(C(=O)CNc3cc(C4CC4)c(Cl)cc3O)CC2)C1

>  <activation / %>
10

$$$$
>  <COMPOUND>
CCOC(=O)[C@H](CCc1ccccc1)N[C@@H](C)C(=O)N1C2CCCCC2C[C@H]1C(=O)O (stereo not given in full)

>  <activation / %>
-7

$$$$
>  <COMPOUND>
Cc1c(F)cc(C(=O)NC2CC2)cc1-c1ccc(C(=O)NCC(C)(C)C)cn1

>  <activation / %>
2.86

$$$$
>  <COMPOUND>
O=C(O)/C=C\C(=O)O

>  <activation / %>
-25.4

$$$$
